- Tested on: RARb:RXRa (NR concentration 270 nM, RXRa partner concentration 90 nM)
- Assay Name: PBM binding z-score (relative to random genomic background probes); higher = stronger binding; sequences stand for … in GC…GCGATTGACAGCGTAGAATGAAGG
Assay Endpoint: PBM binding z-score
One number for each entry.

Known PBM binding z-score results, listed for orientation:
>  <Sequence Text>
CGTCCAAGGTCAGGAGGTCAGTGAAAGCGACGTG

>  <Numeric Readout>
5.52

$$$$
>  <Sequence Text>
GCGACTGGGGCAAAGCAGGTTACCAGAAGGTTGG

>  <Numeric Readout>
1.1

$$$$
>  <Sequence Text>
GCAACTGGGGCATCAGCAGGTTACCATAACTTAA

>  <Numeric Readout>
0.963

$$$$
>  <Sequence Text>
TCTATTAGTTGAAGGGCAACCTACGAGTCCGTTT

>  <Numeric Readout>
1.57

$$$$
>  <Sequence Text>
CTCGAAAGGTGGGTTGAGGTGAGTATACGGATAA

>  <Numeric Readout>
0.866

$$$$

Would you mind giving PBM binding z-score for every sequence in the list below?
1. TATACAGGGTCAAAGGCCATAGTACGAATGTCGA
2. AGAACGAGGGCAATCAGTTGATAGCACGGGTGGC
3. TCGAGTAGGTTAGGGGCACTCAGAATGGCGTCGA
4. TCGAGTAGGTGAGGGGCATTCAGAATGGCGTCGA

Return:
4.56
2.09
0.927
0.965
